# EXPERIMENTAL_SYSTEM: human Dual Specificity Styrosine-Phosphorylation-Regulated Kinase 1A (DYRK1a), DYRK1A (gene 1859)
# TEST_NAME: NVS_ENZ_hDYRK1a: NovaScreen (NVS) Enzymatic Assay for human Dual Specificity Styrosine-Phosphorylation-Regulated Kinase 1A (DYRK1a)
Records with an inconclusive call do not appear. The source made the active and inactive calls. Rule for the calls: active = hit-call score of the fitted dose curve at least 0.9, where 1 is the maximum; inconclusive = response in the unintended direction; inactive = score below 0.9.
MEASURED_METRIC: AC50

Look over these answered cases.
Nc1c(Cl)cc([N+](=O)[O-])cc1Cl = 14.7 µM (active)
CNC(=O)ON=C(SC)C(=O)N(C)C = inactive
CCCCOC(=O)c1ccccc1C(=O)OCCCC = inactive
O=C(Nc1ccccc1)Nc1cnns1 = inactive

// query Look up AC50 for this molecule: COP(N)(=O)SC (stereo not given)
// result inactive
